- system: T1, HLA-DR13 (HLA-DRB1*13:01) (human)
- T1 construct: mature; purified from homozygous EBV-transformed lymphoblastoid cells with antibody L243
- assay_notes: competition ELISA vs biotin-B1 21-36
No end group written: not given here.
Can you tell me relative affinity for the items I'm about to list?

Consider the following illustrative entries.
{"columns": ["binder", "measured_property", "result"],
 "data": [
  ["H-KNVVMVNQGLTKHMT-NH2 (not fully specified) [CCNB1 385-399]", "relative affinity", 37],
  ["REVTGNMRAILIDWL-NH2 [CCNB1 195-209]", "relative affinity", 45],
  ["NKVSEQLQAKMPMKK-NH2 [CCNB1 50-64]", "relative affinity", 258]
]}

Form: binder = PGLRPRTALGDIGNK-NH2 [CCNB1 37-51] ; relative affinity = 422
